Tested on: Plasmodium falciparum
procedure-summary: Antimalarial activity against chloroquine-resistant Plasmodium falciparum Dd2 assessed as inhibition of parasite growth incubated for 72 hrs by SYBR green I-based DNA quantification assay
Type: functional, organism-based
condition-description: Dd2, 72 h
pEC50: −log10 of the molar value.
Given measured pEC50, output rule met if it is greater than or equal to 6 and rule not met if not.

>  <molecule>
O=C1CC2(CCN(CCc3ccc(F)c(F)c3)CC2)Oc2c1ccc1ccccc21

>  <category-label>
rule not met

$$$$

Prompt: Is it the case that OC1CC2(CCN(CCCc3ccccc3)CC2)Oc2c1ccc1ccccc21 (stereo unspecified) has pEC50 reaching or exceeding 6?
Completion: rule met

Prompt: Is it the case that `O=C1CC2(CCNCC2)Oc2c1ccc1ccccc21` has pEC50 reaching or exceeding 6?
Completion: rule not met

Prompt: Is it the case that OC1CC2(CCNCC2)Oc2c1ccc1ccccc21 (stereo unspecified) has pEC50 reaching or exceeding 6?
Completion: rule met

Prompt: Is it the case that `c1ccc(CCN2CCC3(CCc4ccc5ccccc5c4O3)CC2)cc1` has pEC50 reaching or exceeding 6?
Completion: rule not met

Prompt: Is it the case that O=C(Cc1ccc(F)c(F)c1)N1CCC2(CC1)CC(O)c1ccc3ccccc3c1O2 (stereo unspecified) has pEC50 reaching or exceeding 6?
Completion: rule not met

Prompt: Is it the case that OC(CN1CCC2(CC1)CC(O)c1ccc3ccccc3c1O2)c1ccc(Cl)c(Cl)c1 (stereo unspecified) has pEC50 reaching or exceeding 6?
Completion: rule not met

Prompt: Is it the case that OC1CC2(CCN(CCc3ccc(F)c(F)c3)CC2)Oc2c1ccc1ccccc21 (stereo unspecified) has pEC50 reaching or exceeding 6?
Completion: rule met

Prompt: Is it the case that OC(CN1CCC2(CC1)CC(O)c1ccc3ccccc3c1O2)c1ccc(F)c(F)c1 (stereo unspecified) has pEC50 reaching or exceeding 6?
Completion: rule met

Prompt: Is it the case that `CCN1CCC2(CCc3ccc4c(c3O2)CCCC4)CC1` has pEC50 reaching or exceeding 6?
Completion: rule not met

* * *

procedure-summary: Selectivity index, ratio of EC50 for cytotoxicity against human HepG2 cells to EC50 for antimalarial activity against chloroquine-resistant Plasmodium falciparum Dd2
Format: toxicity, cell-based
condition-description: read-out: Ratio EC50
Below, each entry is listed alongside its reported selectivity ratio.

>  <molecule>
OC(CN1CCC2(CC1)CC(O)c1ccc3ccccc3c1O2)c1ccc(F)c(F)c1 (stereo not given)

>  <data-value>
> 53.3

$$$$
>  <molecule>
CCN1CCC2(CCc3ccc4c(c3O2)CCCC4)CC1

>  <data-value>
< 1

$$$$
>  <molecule>
O=C1CC2(CCN(C(=O)Cc3ccc(F)c(F)c3)CC2)Oc2c1ccc1ccccc21

>  <data-value>
< 3.6

$$$$
>  <molecule>
c1ccc(CCN2CCC3(CCc4ccc5ccccc5c4O3)CC2)cc1

>  <data-value>
> 9.6

$$$$
>  <molecule>
OC1CC2(CCN(CCc3ccccc3)CC2)Oc2c1ccc1ccccc21 (stereo not given)

>  <data-value>
> 68.9

$$$$
>  <molecule>
c1ccc(CCCN2CCC3(CCc4ccc5ccccc5c4O3)CC2)cc1

>  <data-value>
> 45.6

$$$$
>  <molecule>
O=C1CC2(CCN(CCCc3ccccc3)CC2)Oc2c1ccc1ccccc21

>  <data-value>
> 36.5

$$$$
>  <molecule>
CCN1CCC2(CCc3ccc4ccccc4c3O2)CC1

>  <data-value>
> 52.1

$$$$
>  <molecule>
CCN1CCC[C@]2(CC(O)c3ccc4ccccc4c3O2)C1 (stereo not given in full)

>  <data-value>
> 7.6

$$$$

`O[C@@H](CN1CCC2(CC1)C[C@H](O)c1ccc3ccccc3c1O2)c1ccc(F)c(F)c1` has a reported selectivity ratio of > 15
